Recorded pIC50 for the following compounds
# targetSystem: Recombinant Human NF-Kappab-Inducing Kinase (NIK/MAP3K14) (Homo sapiens, UniProt Q99558)
# Sequence (Q99558 whole entry): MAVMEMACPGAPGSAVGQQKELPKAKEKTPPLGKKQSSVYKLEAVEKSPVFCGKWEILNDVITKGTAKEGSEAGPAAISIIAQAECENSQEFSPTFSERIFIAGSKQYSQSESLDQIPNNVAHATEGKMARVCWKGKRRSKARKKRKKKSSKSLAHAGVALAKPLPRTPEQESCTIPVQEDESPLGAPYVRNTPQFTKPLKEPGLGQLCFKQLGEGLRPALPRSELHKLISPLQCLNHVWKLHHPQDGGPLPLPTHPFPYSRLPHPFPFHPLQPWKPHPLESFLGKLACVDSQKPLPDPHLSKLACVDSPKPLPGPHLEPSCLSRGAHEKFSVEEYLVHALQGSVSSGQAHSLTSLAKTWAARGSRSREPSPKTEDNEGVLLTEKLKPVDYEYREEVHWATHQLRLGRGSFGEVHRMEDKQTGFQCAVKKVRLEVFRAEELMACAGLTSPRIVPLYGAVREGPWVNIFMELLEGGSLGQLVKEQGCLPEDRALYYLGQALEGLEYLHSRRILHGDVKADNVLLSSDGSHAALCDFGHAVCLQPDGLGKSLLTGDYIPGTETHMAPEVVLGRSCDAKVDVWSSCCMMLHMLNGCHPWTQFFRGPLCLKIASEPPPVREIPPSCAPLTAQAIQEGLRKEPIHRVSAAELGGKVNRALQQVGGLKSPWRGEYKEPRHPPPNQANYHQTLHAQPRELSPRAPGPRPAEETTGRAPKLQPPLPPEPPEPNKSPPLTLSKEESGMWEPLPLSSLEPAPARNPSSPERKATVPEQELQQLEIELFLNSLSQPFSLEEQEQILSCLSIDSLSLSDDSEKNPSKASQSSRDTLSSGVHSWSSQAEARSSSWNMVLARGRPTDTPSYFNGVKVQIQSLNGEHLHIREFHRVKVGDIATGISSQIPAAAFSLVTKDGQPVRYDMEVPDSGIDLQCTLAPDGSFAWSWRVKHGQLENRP
# protocolDetails: Inhibition of auto-phosphorylation of recombinant human NIK/MAP3K14 (AlphaScreen)
# Assay type: biochemical
# reportedConditions: NIK/MAP3K14 auto-phosphorylation, 5 microM ATP, 1 nM enzyme, 2 h at 25° C.; average of values; read-out: Assay 1 IC50
pIC50: −log10 of the molar value.

Answered cases to consult:
CN1CC[C@@](O)(c2cc(-c3cccc(-c4cc(C5CC5)c(N)c(C(N)=O)n4)c3)no2)C1=O; > 7.00
[2H]c1nc(N)c2nc(-c3cccc(-c4nc([C@]5(O)CCN(C)C5=O)co4)c3)ccc2n1 (single isomer, unassigned); < 6.30
CN1CC[C@@](O)(c2cc(-c3cccc(-c4ccc(C(N)=O)o4)c3)no2)C1=O; > 7.00

Find the measured pIC50 of CN1CC[C@@](O)(c2cc(-c3cccc(-c4cc(-c5cncs5)cc(C(N)=O)n4)c3)no2)C1=O with Recombinant Human NF-Kappab-Inducing Kinase (NIK/MAP3K14) (Homo sapiens, UniProt Q99558) as test system. > 7.00

Find the measured pIC50 of CN1CC[C@@](O)(c2cc(-c3ccc(F)c(-c4cc(C(F)(F)F)cc(C(N)=O)n4)c3)no2)C1=O with Recombinant Human NF-Kappab-Inducing Kinase (NIK/MAP3K14) (Homo sapiens, UniProt Q99558) as test system. > 7.00

Find the measured pIC50 of CN1CC[C@@](O)(c2cc(-c3cccc(-c4ncc(Nc5cnn(CC(F)(F)F)c5)c(C(N)=O)n4)c3)no2)C1=O with Recombinant Human NF-Kappab-Inducing Kinase (NIK/MAP3K14) (Homo sapiens, UniProt Q99558) as test system. > 7.00

Find the measured pIC50 of Cc1n[nH]c2nc(-c3cccc(-c4cc([C@]5(O)CCN(C)C5=O)on4)c3)cc(C(N)=O)c12 with Recombinant Human NF-Kappab-Inducing Kinase (NIK/MAP3K14) (Homo sapiens, UniProt Q99558) as test system. < 6.30

###

Recorded IC50 for the following molecules
# Test system: p-IKKα levels in L363 (NIK translocated multiple myeloma) cells
# protocolDetails: Effect of compounds on p-IKKα levels in L363 cells (AlphaLISA SureFire Ultra)
# Type: cell-based
# reportedConditions: Homo sapiens, L-363; L363 cells, BAFF stimulated, MG132, 6 h; average of values; read-out: Assay 2 IC50

Answered cases to consult:
COc1ncc(-c2cccc(-c3cc([C@]4(O)CCN(C)C4=O)on3)c2)c(C(N)=O)n1; > 501 nM
CN1CC[C@@](O)(c2cc(-c3cccc(-c4ccc5nnc(N)n5c4)c3)no2)C1=O; > 501 nM
CN1CC[C@@](O)(c2cc(-c3cccc(-c4ccc5cncn5c4)c3)no2)C1=O; > 501 nM

Find the measured IC50 of CN1CC[C@@](O)(c2cc(-c3cccc(-c4ncc(N)c(C(=O)N[C@@H]5CCOC5)n4)c3)no2)C1=O with p-IKKα levels in L363 (NIK translocated multiple myeloma) cells as test system. > 501 nM

Find the measured IC50 of CN1CC[C@@](O)(c2cc(-c3cccc(-c4cc(C(N)=O)ccn4)n3)no2)C1=O with p-IKKα levels in L363 (NIK translocated multiple myeloma) cells as test system. > 501 nM

Find the measured IC50 of CN1CC(F)(F)[C@@](O)(c2cc(-c3ccc(F)c(-c4nc(C(N)=O)c5[nH]ccc5n4)c3)no2)C1=O with p-IKKα levels in L363 (NIK translocated multiple myeloma) cells as test system. < 100 nM

Find the measured IC50 of COc1cc(-c2cc(-c3cc([C@]4(O)C[C@@H](C(F)(F)F)N(C)C4=O)on3)ccc2F)nc2c(N)ncnc12 with p-IKKα levels in L363 (NIK translocated multiple myeloma) cells as test system. > 501 nM

Find the measured IC50 of Cc1sc(-c2cccc(-c3cc([C@]4(O)CCN(C)C4=O)on3)c2)nc1C(N)=O with p-IKKα levels in L363 (NIK translocated multiple myeloma) cells as test system. 100 to 500 nM

###

# targetSystem: Recombinant Human NF-Kappab-Inducing Kinase (NIK/MAP3K14) (Homo sapiens)
# protocolDetails: Inhibition of auto-phosphorylation of recombinant human NIK/MAP3K14 (AlphaScreen)
# Type: biochemical
# reportedConditions: NIK/MAP3K14 auto-phosphorylation, 5 microM ATP, 1 nM enzyme, 2 h at 25° C.; average of values; read-out: Assay 1 IC50
valueKind: IC50

Answered cases to consult:
CN1CC[C@@](O)(c2cc(-c3cccc(-c4nc5c(c(C(N)=O)n4)C4CCC(C5)O4)c3)[nH]n2)C1=O (stereo in doubt); 0.1 to 0.5 µM
CN1CC[C@@](O)(c2cc(-c3cccc(-c4cc5[nH]cnc5c(C(N)=O)n4)c3)no2)C1=O; < 0.1 µM

Could you please provide reported IC50 for CN1CC[C@@](O)(c2cc(-c3cccc(-c4cc(-c5ccns5)cc(C(N)=O)n4)c3)no2)C1=O ? Thanks! < 0.1 µM

Could you please provide reported IC50 for CN1CC[C@@](O)(c2cc(-c3cccc(-c4cccc(C(N)=O)n4)c3)on2)C1=O ? Thanks! < 0.1 µM

Could you please provide reported IC50 for CN1CC[C@@](O)(c2cc(-c3ccnc(N4CCc5ccnc(N)c5C4)c3)no2)C1=O ? Thanks! 0.1 to 0.5 µM

Could you please provide reported IC50 for CN1CC[C@@](O)(c2cc(-c3cccc(-c4nc5c(N)ncnc5s4)c3)no2)C1=O ? Thanks! < 0.1 µM

Could you please provide reported IC50 for COc1cc(-c2cccc(-c3cc([C@]4(O)CCN(C)C4=O)on3)c2)cc2c1cnn2C ? Thanks! 0.1 to 0.5 µM

###

# Tested on: p-IKKα levels in L363 (NIK translocated multiple myeloma) cells
# protocolDetails: Effect of compounds on p-IKKα levels in L363 cells (AlphaLISA SureFire Ultra)
# Format: cell-based
# reportedConditions: Homo sapiens, L-363; L363 cells, BAFF stimulated, MG132, 6 h; average of values; read-out: Assay 2 IC50
pIC50: −log10 of the molar value.
Recorded pIC50 for the following molecules

CN1CC[C@@](O)(c2cc(-c3cccc(-c4sc(Br)nc4C(N)=O)c3)no2)C1=O (single isomer, unassigned) [Example 214]; < 6.30
CN1CC[C@@](O)(c2cc(-c3cccc(-c4cc(C5CC5)c(N)c(C(N)=O)n4)c3)on2)C1=O [Example 108]; > 7.00
CN1CC[C@@](O)(c2cc(-c3cccc(-c4nc5c(c(C(N)=O)n4)CCCC5)c3)no2)C1=O [Example 125]; < 6.30
Cc1ncc(C#N)cc1Nc1sc(-c2cccc(-c3cc([C@]4(O)CCN(C)C4=O)on3)c2)nc1C(N)=O [Example 235]; > 7.00

Could you please provide reported pIC50 for CN1CC[C@@](O)(c2cc(-c3cccc(-n4nc(C(N)=O)c5ccccc54)c3)no2)C1=O [Example 166] ? Thanks! 6.30 to 7.00

Could you please provide reported pIC50 for CN1CC[C@](O)(c2cn(-c3cccc(-c4cccc(C(N)=O)n4)c3)nn2)C1=O [Example 42] ? Thanks! < 6.30

Could you please provide reported pIC50 for CN1CC[C@@](O)(c2cc(-c3cccc(-c4ccnc(C(N)=O)n4)c3)no2)C1=O [Example 162] ? Thanks! < 6.30

###

# targetSystem: Recombinant Human NF-Kappab-Inducing Kinase (NIK/MAP3K14) (Homo sapiens, UniProt Q99558)
# protocolDetails: Inhibition of auto-phosphorylation of recombinant human NIK/MAP3K14 (AlphaScreen)
# Type: biochemical
# reportedConditions: NIK/MAP3K14 auto-phosphorylation, 5 microM ATP, 1 nM enzyme, 2 h at 25° C.; average of values; read-out: Assay 1 IC50
Recorded IC50 for the following compounds

CN1CC[C@@](O)(c2cc(-c3cccc(-c4cc5c(o4)CCNC5=O)c3)no2)C1=O; > 501 nM
[2H]c1nc(N)c2nc(-c3cccc(-c4cc([C@@]5(O)CCN(C)C5=O)nn4C)c3)ccc2n1 (single isomer, unassigned); > 501 nM
Cc1cc(C(N)=O)nc(-c2cccc(-c3cc([C@]4(O)CCN(C)C4=O)on3)c2)c1; < 100 nM
CC(=O)N1CC(Nc2sc(-c3cccc(-c4cc([C@]5(O)CCN(C)C5=O)on4)c3)nc2C(N)=O)C1; < 100 nM
CN1CC[C@@](O)(c2cc([C@H]3CCCN(c4ccc5ncnc(N)c5n4)C3)no2)C1=O (single isomer, unassigned); < 100 nM
CN1CC[C@@](O)(c2cc(-c3cccc(-c4c[nH]c5ncccc45)c3)no2)C1=O; 100 to 500 nM

Find the measured IC50 of CN1CC[C@@](O)(c2cc(-c3cccc(-c4cc(N)c5nc[nH]c(=O)c5n4)c3)no2)C1=O with Recombinant Human NF-Kappab-Inducing Kinase (NIK/MAP3K14) (Homo sapiens, UniProt Q99558) as test system. < 100 nM

Find the measured IC50 of CN1CC[C@@](O)(c2cc(-c3cccc(-c4ncc(Nc5cnn(C)c5)c(C(N)=O)n4)c3)no2)C1=O with Recombinant Human NF-Kappab-Inducing Kinase (NIK/MAP3K14) (Homo sapiens, UniProt Q99558) as test system. < 100 nM

Find the measured IC50 of CN1CC[C@@](O)(c2cc(-c3cccc(-c4cc5c(c(C(N)=O)n4)CCCC5)c3)no2)C1=O with Recombinant Human NF-Kappab-Inducing Kinase (NIK/MAP3K14) (Homo sapiens, UniProt Q99558) as test system. < 100 nM

Find the measured IC50 of CCc1c[nH]c2ncnc(-c3cccc(-c4cc([C@]5(O)CCN(C)C5=O)on4)c3)c12 with Recombinant Human NF-Kappab-Inducing Kinase (NIK/MAP3K14) (Homo sapiens, UniProt Q99558) as test system. > 501 nM

Find the measured IC50 of CN1CC[C@@](O)(c2cc(-c3cccc(-c4ccc5cnn(C)c5n4)c3)no2)C1=O with Recombinant Human NF-Kappab-Inducing Kinase (NIK/MAP3K14) (Homo sapiens, UniProt Q99558) as test system. 100 to 500 nM
